# Ki against Sodium-dependent serotonin transporter (Rattus norvegicus, UniProt P31652), merged from multiple literature sources
METRIC: Ki (nM)

| MOLECULE | METRIC | MEASURED RESULT |
| --- | --- | --- |
| Fc1cc(OCCNCCCc2c[nH]c3ccc(F)cc23)c2c(c1)OCCO2 | Ki | 0.49 |
| Ic1ccccc1O[C@@H](c1ccccc1)[C@H]1CNCCO1 | Ki | 51.5 |
| Fc1ccc(OC(c2ccc(F)cc2)C2CCCNC2)cc1 (stereo not given) | Ki | 23.4 |
| CN(C)CCC(Oc1ccc(NC(=O)c2ccc(Cl)c(Cl)c2)cc1)c1ccccc1 (stereo not given) | Ki | 65.3 |
| Fc1ccc(N(CCCN2CCNCC2)c2ccc(F)cc2)cc1 | Ki | 133 |

[A] COc1cc(F)cc(OC(c2ccccc2)C2CCNCC2)c1 (stereo not given)
[B] COc1ccc(-c2c(=O)n(CCCCN3CCCC(c4c[nH]c5ccc(OC)cc45)C3)c(=O)n3ccccc23)cc1 (stereo not given)
Request: // which entry reports the smaller Ki, A or B ? Please identify the chosen entry by its label.
Result: A
(A: 1.9 nM, B: 86 nM)

[a] c1ccc(CN[C@H]2CC[C@@H](c3c[nH]c4ccccc43)CC2)cc1
[b] NC(=O)c1ccc(F)c2c1CC(N(CCc1c[nH]c3ccc(F)cc13)CC1CC1)CO2 (racemic)
Request: Which of the two items, a and b , has the greater recorded Ki? Response format: the label of the selected entry.
Result: a

----------
// read-out pKi, gathered for Sodium-dependent serotonin transporter (Rattus norvegicus, UniProt P31652) from published studies
pKi: −log10 of the molar value.
METRIC: pKi

| MOLECULE | pKi |
| --- | --- |
| Ic1ccccc1O[C@@H](c1ccccc1)[C@@H]1CNCCO1 | 7.39 |
| COc1ccc(CC2CCN(CCOc3cccc4nc(C)ccc34)CC2)cc1NS(C)(=O)=O | 6.20 |

[P] O=C1CC(c2c[nH]c3ccccc23)C(=O)N1CCN1CCC(c2c[nH]c3ccc(F)cc23)CC1 (racemic)
[Q] CC(=O)N(C)c1cccc(CN2CCN(CCOc3cccc4nc(C)ccc34)CC2)c1
[R] Cc1ccc(C2CN3CCCC3c3cc(OCCCN4CCCCC4)ccc32)cc1 (racemic)
Request: // ranking: key=pKi, reverse=True Rank the items, then write their labels in that order.
Result: R, P, Q
(R: 8.52, P: 6.42, Q: 6.00)

[P] C[C@@H]1CN(CCCN(c2ccc(F)cc2)c2ccc(F)cc2)C[C@@H](C)N1CCc1ccc(Cl)c(Cl)c1
[Q] CNCCCC1(c2ccccc2)OC(C)(C)c2ccccc21 (centres undefined)
Request: Select the item whose pKi value is smaller, choosing between P and Q . Answer by stating the label of the chosen item.
Result: P
(P: 5.37, Q: 6.10)

[1] CNCc1ccccc1Sc1ccc(I)cc1N
[2] O=c1c(-c2ccc(Cl)cc2)c2ccccn2c(=O)n1CCCCN1CC=C(c2c[nH]c3ccc(F)cc23)CC1
Request: Of the two listed items, which has the higher pKi? First: 1 Second: 2 # reply format: chosen label
Result: 1

----------
pKi: −log10 of the molar value.
Compiled literature pKi, tested on Sodium-dependent serotonin transporter (Rattus norvegicus, UniProt P31652).
METRIC: pKi

[I] O=S(=O)(NCCCCN1CCN(c2cccc(Cl)c2Cl)CC1)c1cnc2ccccc2c1
[II] O=c1c(-c2ccccc2F)c2ccccn2c(=O)n1CCCCN1CC=C(c2c[nH]c3ccc(F)cc23)CC1
Request: Given the listed items, does I or II have the lesser reported pKi? To answer, give the label that identifies your chosen option.
Result: I
(I: 5.92, II: 8.41)

[A] Oc1ccc(CN[C@H]2CO[C@H](C(c3ccccc3)c3ccccc3)C2)cc1
[B] O=C1CC(c2c[nH]c3ccccc23)C(=O)N1CCCCN1CC=C(c2c[nH]c3ccc(F)cc23)CC1 (racemic)
[C] CNCC[C@H](c1cccs1)c1cccc2[nH]ccc12
[D] COc1ccc2[nH]cc(C3CCCN(CCCCn4c(=O)c(-c5ccccc5)c5ccccn5c4=O)C3)c2c1 (configuration not stated)
Request: Hey, quick one: sort these by pKi, largest value first please. Would you mind listing the labels in the order asked for?
Result: B, C, D, A

----------
pKi: −log10 of the molar value.
pKi values for Sodium-dependent serotonin transporter (Rattus norvegicus) compiled from several publications are listed below.
METRIC: pKi

| COMPOUND | pKi |
| --- | --- |
| N#Cc1ccc2[nH]cc([C@H]3CC[C@@H](N4CCN(c5cccc6ncccc56)CC4)CC3)c2c1 | 8.46 |

[A] CN(C)CCC(Oc1ccc(NC(=O)N(C)c2ccc(Cl)c(Cl)c2)cc1)c1ccccc1 (stereo not given)
[B] CCOc1ccc(C2CN(C)Cc3cc(OCCCN4CCC(F)CC4)ccc32)cc1 (stereo not given)
[C] COc1ccc(C2CN(C)Cc3cc(OCCCN4CCN(c5ccc(C(F)(F)F)cc5)CC4)ccc32)cc1 (stereo not given)
[D] O=c1c(-c2ccccc2)c2ccccn2c(=O)n1CCCCN1CC=C(c2c[nH]c3ccc(Cl)cc23)CC1
Request: Ascending by pKi, please: list the compounds accordingly. Reply: labels, ordered per the request.
Result: D, A, C, B

----------
This section presents pKi values reported for UniProtKB P31652 in the literature.
pKi: −log10 of the molar value.
METRIC: pKi

| COMPOUND | pKi |
| --- | --- |
| Cc1ccc2c3c(ccc2n1)OC[C@H](CN1CCCN(c2ccc4ccccc4n2)CC1)O3 | 8.13 |
| COc1ccccc1N1CCN([C@H]2CC[C@H](c3c[nH]c4ccc(F)cc43)CC2)CC1 | 7.34 |
| COc1ccc2[nH]cc(C3CCN(CCCCn4c(=O)c(-c5ccccc5F)c5ccccn5c4=O)CC3)c2c1 | 7.23 |
| Cc1ccccc1-c1c2n(c(=O)n(CCCCN3CCC(c4c(C)[nH]c5ccccc45)CC3)c1=O)CCCC2 | 6.05 |
| c1ccc2c(OCCNCCCc3c[nH]c4ccccc34)cccc2c1 | 6.91 |
| Ic1ccc(OC(c2ccccc2)C2CCNCC2)cc1 (configuration not stated) | 7.69 |
| O=c1c(-c2ccc(Cl)cc2)c2n(c(=O)n1CCCCN1CCC(c3c[nH]c4ccccc34)CC1)CCCC2 | 7.36 |
| COc1ccc2[nH]cc(C3CCCN(CCCCn4c(=O)c(-c5ccc(C)cc5)c5ccccn5c4=O)C3)c2c1 (configuration not stated) | 6.76 |

[P] Clc1ccc(N2CCN(CCCc3ccccc3)CC2)cc1
[Q] N#Cc1ccc2[nH]cc([C@H]3CC[C@@H](N4CCN(c5cccc6[nH]ccc56)CC4)CC3)c2c1
[R] OC(CCN1CCN(c2cccc3c2OCCCO3)CC1)c1csc2ccccc12 (configuration not stated)
[S] C[C@@H]1CN(CCCN(c2ccc(F)cc2)c2ccc(F)cc2)C[C@@H](C)N1
Request: Hi! Can you put these in order of pKi, lowest number first? Form field (ranking): labels in requested order.
Result: S, P, R, Q
(S: 4.88, P: 5.96, R: 7.11, Q: 8.80)

[P] O=C1[C@@H]2CCCN2C(=O)CN1CN1CCN(c2cccc3ccccc23)CC1
[Q] Cc1ccc2c(OCCN3CCN(Cc4ccc5c(c4)N(Cc4ccccc4)C(=O)CO5)CC3)cccc2n1
[R] CN1Cc2cc(OCCCN3CCC(F)CC3)ccc2C(c2ccc(Cl)c(Cl)c2)C1 (configuration not stated)
[S] COc1ccccc1N1CCN([C@H]2CC[C@@H](c3c[nH]c4ccc(F)cc43)CC2)CC1
[T] Fc1ccc2[nH]cc([C@H]3CC[C@H](N4CCN(c5cccc6ncccc56)CC4)CC3)c2c1
Request: Sort entries by pKi from minimum to maximum value. List the labels, following the order given in the request.
Result: P, Q, T, R, S
(P: 6.01, Q: 6.50, T: 7.14, R: 8.08, S: 8.48)

----------
A compilation of published pKi results with Sodium-dependent serotonin transporter (Rattus norvegicus).
pKi: −log10 of the molar value.
METRIC: pKi

Examples with their reported pKi follow.
| COMPOUND | MEASURED RESULT |
| --- | --- |
| CCN(CC)C(=O)[C@@]1(c2ccccc2)C[C@H]1C(C)N (stereo in doubt; 3a) | 5.62 |
| c1cc(N2CCN([C@H]3CC[C@H](c4c[nH]c5ccccc54)CC3)CC2)c2nc[nH]c2c1 | 7.12 |
| Cc1ccc2c(OCCN3CCC(Cc4cccc(NS(=O)(=O)C(C)C)c4)CC3)cccc2n1 | 6.40 |
| COc1ccc2[nH]cc(C3=CCN(CCCCN4C(=O)CC(c5c[nH]c6ccccc56)C4=O)CC3)c2c1 (racemic) | 7.34 |
| COc1ccc(C2CN(C)Cc3cc(OCCCN4CCC(C(F)(F)F)CC4)ccc32)cc1 (centres undefined) | 7.72 |
| CCCN(CCCc1c[nH]c2ccc(F)cc12)C1COc2c(F)ccc(C(N)=O)c2C1 (racemic) | 8.15 |

[a] COc1ccc2[nH]cc(C3CCCN(CCCCn4c(=O)c(-c5ccccc5OC)c5ccccn5c4=O)C3)c2c1 (centres undefined)
[b] COc1ccc(C2CN(C)Cc3cc(OCCCN4CCN(C(=O)c5cccn5C)CC4)ccc32)cc1 (centres undefined)
[c] COc1ccc(C2CN(C)Cc3cc(OCCCN4CCC4)ccc32)cc1 (centres undefined)
[d] O=c1c(-c2ccccc2F)c2ccccn2c(=O)n1CCCCN1CCCC(c2c[nH]c3ccc(F)cc23)C1 (centres undefined)
Request: Sort low-to-high on pKi, please. To answer, write out the labels according to the requested order.
Result: a, d, b, c

[P] N#Cc1ccc2[nH]cc(C3=CCC(N4CCCCC4)CC3)c2c1 (centres undefined)
[Q] Fc1ccc2[nH]cc([C@H]3CC[C@H](NCCOc4cccc5[nH]ccc45)CC3)c2c1
Request: Which entry has a larger number for pKi, P or Q ? Lab note: record the label of whichever item you select.
Result: Q
(Q: 8.76, P: 6.75)
